Values from patent US20070259948A1

- Test system: C. albicans
# Lookup of reported MIC keyed by entry
Assay endpoint: MIC

compound="O=C(CCCCl)OCC1C=C(c2cccc(Br)c2)C(=O)O1 (centres unmarked)" target_under_test="C. albicans" result="1 to 2 µg/mL"
compound="O=C(CCCCl)OCC1C=C(c2cccc(Cl)c2)C(=O)O1 (centres unmarked)" target_under_test="C. albicans" result="1 to 2 µg/mL"
compound="COc1ccc(C2=CC(COC(=O)CCCCl)OC2=O)cc1Br (centres unmarked)" target_under_test="C. albicans" result="> 4 µg/mL"
compound="O=C1OC(COC(=O)c2ccc[nH]2)C=C1c1cccc(Cl)c1 (centres unmarked)" target_under_test="C. albicans" result="0.5 to 1 µg/mL"
compound="C=CCC(=O)OCC1C=C(c2ccc(OC)c(Br)c2)C(=O)O1 (centres unmarked)" target_under_test="C. albicans" result="2 to 4 µg/mL"
